Test system: LU-165
Experiment: cells
Format: functional, cell-based
Conditions: Homo sapiens
Description: SANGER: Inhibition of human LU-165 cell growth in a cell viability assay.
pIC50: −log10 of the molar value.
valueKind: pIC50

Examples from the recorded data:
compound | assayedTarget | valueKind | result
CNC(=O)c1cc(Oc2ccc(NC(=O)Nc3ccc(Cl)c(C(F)(F)F)c3)cc2)ccn1 | LU-165 | pIC50 | < 5.40
CC1=C2C[C@H]3[C@@H](CC=C4C[C@@H](O)CC[C@@]43C)[C@@H]2CC[C@]12O[C@@H]1C[C@H](C)CN[C@H]1[C@H]2C | LU-165 | pIC50 | < 4.80

Form: compound = `Cc1cc(Nc2cc(N3CCN(C)CC3)nc(Sc3ccc(NC(=O)C4CC4)cc3)n2)n[nH]1` ; pIC50 = < 5.70

Form: compound = `CO[C@H]1C[C@@H]2CC[C@@H](C)[C@@](O)(O2)C(=O)C(=O)N2CCCC[C@H]2C(=O)O[C@H]([C@H](C)C[C@@H]2CC[C@@H](O)[C@H](OC)C2)CC(=O)[C@H](C)/C=C(\C)[C@@H](O)[C@@H](OC)C(=O)[C@H](C)C[C@H](C)/C=C/C=C/C=C/1C` ; pIC50 = < 7.00

Form: compound = C=C1C(=O)O[C@@H]2C3O[C@]3(C)CC/C=C(\C)CC[C@@H]12 (stereo partly specified) ; pIC50 = < 5.30

Form: compound = `CCC1=C[C@@H]2CN(C1)Cc1c([nH]c3ccccc13)[C@@](C(=O)OC)(c1cc3c(cc1OC)N(C)[C@H]1[C@@](O)(C(=O)OC)[C@H](OC(C)=O)[C@]4(CC)C=CCN5CC[C@]31[C@@H]54)C2` ; pIC50 = < 7.19

----------
System: OAW-28;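 further: growth inhibition of OAW-28 cells, read out with a cell viability assay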
Test: cells
Assay type: functional, cell-based, Homo sapiens
Conditions: Homo sapiens, OAW-28
Description: SANGER: Inhibition of human OAW-28 cell growth in a cell viability assay.
pIC50: −log10 of the molar value.
valueKind: pIC50

Examples from the recorded data:
molecule | pIC50
COc1ccc(-c2ccc3c(N4CCOC[C@@H]4C)nc(N4CCOC[C@@H]4C)nc3n2)cc1CO [AZD-8055] | < 5.70
CN(c1ncccc1CNc1nc(Nc2ccc3c(c2)CC(=O)N3)ncc1C(F)(F)F)S(C)(=O)=O [PF-00562271] | < 5.59
O=C(c1cc(Cc2n[nH]c(=O)c3ccccc23)ccc1F)N1CCN(C(=O)C2CC2)CC1 [OLAPARIB] | < 5.30

Reported OAW-28 pIC50 for item C=CCc1cccc(/C=N/NC(=O)CN2CCN(Cc3ccccc3)CC2)c1O [PAC-1] was < 5.59

Reported OAW-28 pIC50 for item Cn1cncc1[C@@](N)(c1ccc(Cl)cc1)c1ccc2c(c1)c(-c1cccc(Cl)c1)cc(=O)n2C [TIPIFARNIB] was < 4.80

----------
Tested on: RKO
Assay: cells
Assay type: functional, cell-based, Homo sapiens
Conditions: Homo sapiens, RKO
Description: SANGER: Inhibition of human RKO cell growth in a cell viability assay.
Mark 1 only when IC50 stays strictly below 300 nM. Values equal to the cut-off are -1.

// below: answered compounds
smiles | discreteLabel
Cn1cncc1[C@@](N)(c1ccc(Cl)cc1)c1ccc2c(c1)c(-c1cccc(Cl)c1)cc(=O)n2C | -1
CN(c1ncccc1CNc1nc(Nc2ccc3c(c2)CC(=O)N3)ncc1C(F)(F)F)S(C)(=O)=O | -1
CC(=O)O[C@@]12CO[C@@H]1C[C@H](O)[C@@]1(C)C(=O)[C@H](O)C3=C(C)[C@@H](OC(=O)[C@H](O)[C@@H](NC(=O)OC(C)(C)C)c4ccccc4)C[C@@](O)([C@@H](OC(=O)c4ccccc4)[C@H]21)C3(C)C | 1

Is IC50 of `CCC(=O)N1CCN(c2ccc(-n3c(=O)ccc4cnc5ccc(-c6cnc7ccccc7c6)cc5c43)cc2C(F)(F)F)CC1` strictly below 300 nM?
1

Is IC50 of `COc1ccc(C2=N[C@@H](c3ccc(Cl)cc3)[C@@H](c3ccc(Cl)cc3)N2C(=O)N2CCNC(=O)C2)c(OC(C)C)c1` strictly below 300 nM?
-1
